Tested on: UACC-257 melanoma
assayRemarks: NCI-60 one-dose screen, 48 h
experimentalContext: 10 µM unless noted
Compounds without any hit were thinned out: in the full panel of roughly 83,000, 20% have a hit. The source made the active and inactive calls. The calls were made as follows: active = growth percent below 10; inactive = the rest.
Outcomes: active, inactive

[[record]]
molecule = "CN1CCc2nc3sc(C(N)=O)c(N)c3c(-c3cccs3)c2C1"
discretelabel = "inactive"

[[record]]
molecule = "CC1CN(S(=O)(=O)c2oc(-c3ccc(Cl)cc3)nc2C#N)CC(C)O1 (stereo not given)"
discretelabel = "inactive"

[[record]]
molecule = "C=C1C(=O)O[C@H]2[C@H]1CC/C(COC(=O)NCc1ccc(Cn3c(=O)sn(CCCCC)c3=O)cc1)=C\\CC[C@@]1(C)O[C@@H]21"
discretelabel = "inactive"

[[record]]
molecule = "COc1ccc(-c2ccc(=O)oc2-c2cc(OC)c(OC)c(OC)c2)cc1O"
discretelabel = "inactive"

[[record]]
molecule = "C=CC[Se]C(=O)Cc1c(C)n(C(=O)c2ccc(Cl)cc2)c2ccc(OC)cc12"
discretelabel = "active"

[[record]]
molecule = "CCOC(=O)C1=C(C)NC(=O)NC1c1c(Cl)n(CCCl)c2ccccc12 (stereo not given)"
discretelabel = "inactive"

[[record]]
molecule = "CSc1oc(C)nc1[P+](c1ccccc1)(c1ccccc1)c1ccccc1"
discretelabel = "inactive"

[[record]]
molecule = "CCc1ncnc2c1ccn2C(C)c1ccc(OC)c(F)c1 (stereo not given)"
discretelabel = "inactive"

[[record]]
molecule = "COc1cccc(/C=C2\\COc3ccc(O)c(O)c3C2=O)c1"
discretelabel = "inactive"

[[record]]
molecule = "COc1ccc(/C=N\\Nc2nc(SCCC(C)C)nc(-c3ccc(OC)cc3)c2C#N)cc1"
discretelabel = "inactive"

